meta.source: the RNAGym collection of RNA variant scans (doi:10.7554/elife.90254)

Item-by-item account of self-cleavage
B1: LINE1-full (parent)
chain: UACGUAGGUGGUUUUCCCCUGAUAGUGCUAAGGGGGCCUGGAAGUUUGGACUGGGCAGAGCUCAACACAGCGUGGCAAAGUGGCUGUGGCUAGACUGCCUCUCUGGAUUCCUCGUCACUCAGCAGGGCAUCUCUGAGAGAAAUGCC

- Variants of: B1
- Procedure text: self-cleavage, relative activity (ratio to wild type); higher = more cleavage; in vitro, sequencing; the parent is a self-cleaving ribozyme
Lab note: jot down the number only; don't add units.

| Variant | self-cleavage |
| --- | --- |
| U85A A141U | 0.07 |

## Task Give the reported value of self-cleavage for this record: U39C A94G
## Result 0.11

## Task Give the reported value of self-cleavage for this record: U9A A129G
## Result 1.24

## Task Give the reported value of self-cleavage for this record: G35A C95A
## Result 0.07

## Task Give the reported value of self-cleavage for this record: G36A U45G
## Result 0.92

## Task Give the reported value of self-cleavage for this record: A24G C98A
## Result 0.13

## Task Give the reported value of self-cleavage for this record: A2U G97A
## Result 0.08
